- Tested on: human hepatocytes
- experimentalProtocol: Cytosolic drug accumulation ratio (Kpcyto) and cytosolic bioavailability (Fcyto) in human hepatocytes with chloroquine
- Type: in vitro ADME
- experimentalParameters: cytosolic bioavailability = fu,cell × Kpcyto; human hepatocytes
Cut-off 0.05 on Fcyto, inclusive. At or above means yes (1); below means no (0).

structureNotation | qualitativeLabel
CC[C@H]1OC(=O)[C@H](C)[C@@H](O[C@H]2C[C@@](C)(OC)[C@@H](O)[C@H](C)O2)[C@H](C)[C@@H](O[C@@H]2O[C@H](C)C[C@H](N(C)C)[C@H]2O)[C@](C)(O)C[C@@H](C)C(=O)[C@H](C)[C@@H](O)[C@]1(C)O | yes (1)
CC[C@H]1OC(=O)[C@H](C)[C@@H](O[C@H]2C[C@@](C)(OC)[C@@H](O)[C@H](C)O2)[C@H](C)[C@@H](O[C@@H]2O[C@H](C)C[C@H](N(C)C)[C@H]2O)[C@](C)(O)C[C@@H](C)/C(=N\OCOCCOC)[C@H](C)[C@@H](O)[C@]1(C)O | yes (1)

Decide: Fcyto of `C[C@@H](Oc1cc(-c2cnn(C3CCNCC3)c2)cnc1N)c1c(Cl)ccc(F)c1Cl` >= 0.05?
no (0)

Decide: Fcyto of `CC[C@H]1OC(=O)[C@H](C)C(=O)[C@H](C)[C@@H](O[C@@H]2O[C@H](C)C[C@H](N(C)C)[C@H]2O)[C@](C)(OC)C[C@@H](C)C(=O)[C@H](C)[C@H]2N(CCCCn3cnc(-c4cccnc4)c3)C(=O)O[C@]12C` >= 0.05?
yes (1)

Decide: Fcyto of `Cc1cn(-c2cc(NC(=O)c3ccc(C)c(Nc4nccc(-c5cccnc5)n4)c3)cc(C(F)(F)F)c2)cn1` >= 0.05?
no (0)

Decide: Fcyto of `CCc1nn(CCCN2CCN(c3cccc(Cl)c3)CC2)c(=O)n1CCOc1ccccc1` >= 0.05?
no (0)

Ref: paper PMC6458156
